Values from patent US4349545A

Tested on: Staphylococcus aureus 1061
ENDPOINT: MIC (µg/mL)
Give just the numeric value; µg/mL need not be written.

Below are worked cases with known answers.
- MOLECULE: "CC[C@H]1OC(=O)[C@H](C)[C@@H](O[C@H]2C[C@@](C)(OC)[C@@H](O)[C@H](C)O2)[C@H](C)[C@@H](O[C@@H]2O[C@H](C)C[C@H](N(C)C)[C@H]2O)[C@](C)(O)C[C@@H](C)C(=NOCCN2CCN(C)CC2)[C@H](C)[C@@H](O)[C@]1(C)O [Example 43]"
  MIC [µg/mL]: 1
- MOLECULE: "CC[C@H]1OC(=O)[C@H](C)[C@@H](O[C@H]2C[C@@](C)(OC)[C@@H](O)[C@H](C)O2)[C@H](C)[C@@H](O[C@@H]2O[C@H](C)C[C@H](N(C)C)[C@H]2O)[C@](C)(O)C[C@@H](C)C(=NOCCNC(C)C)[C@H](C)[C@@H](O)[C@]1(C)O [Example 39]"
  MIC [µg/mL]: 0.3
- MOLECULE: "CC[C@H]1OC(=O)[C@H](C)[C@@H](O[C@H]2C[C@@](C)(OC)[C@@H](O)[C@H](C)O2)[C@H](C)[C@@H](O[C@@H]2O[C@H](C)C[C@H](N(C)C)[C@H]2O)[C@](C)(O)C[C@@H](C)C(=NOCOCCN2CCOCC2)[C@H](C)[C@@H](O)[C@]1(C)O [Example 26]"
  MIC [µg/mL]: 0.6
- MOLECULE: "CC[C@H]1OC(=O)[C@H](C)[C@@H](O[C@H]2C[C@@](C)(OC)[C@@H](O)[C@H](C)O2)[C@H](C)[C@@H](O[C@@H]2O[C@H](C)C[C@H](N(C)C)[C@H]2O)[C@](C)(O)C[C@@H](C)C(=NOCCN2CCOCC2)[C@H](C)[C@@H](O)[C@]1(C)O [Example 35]"
  MIC [µg/mL]: 0.4
- MOLECULE: "CC[C@H]1OC(=O)[C@H](C)[C@@H](O[C@H]2C[C@@](C)(OC)[C@@H](O)[C@H](C)O2)[C@H](C)[C@@H](O[C@@H]2O[C@H](C)C[C@H](N(C)C)[C@H]2O)[C@](C)(O)C[C@@H](C)C(=NOC(C)CN(C)C)[C@H](C)[C@@H](O)[C@]1(C)O (stereo partly shown) [Example 36]"
  MIC [µg/mL]: 0.2

# molecule CCOCON=C1[C@H](C)C[C@@](C)(O)[C@H](O[C@@H]2O[C@H](C)C[C@H](N(C)C)[C@H]2O)[C@@H](C)[C@H](O[C@H]2C[C@@](C)(OC)[C@@H](O)[C@H](C)O2)[C@@H](C)C(=O)O[C@H](CC)[C@@](C)(O)[C@H](O)[C@H]1C [Example 20] ; its MIC = 0.4

# molecule CC[C@H]1OC(=O)[C@H](C)[C@@H](O[C@H]2C[C@@](C)(OC)[C@@H](O)[C@H](C)O2)[C@H](C)[C@@H](O[C@@H]2O[C@H](C)C[C@H](N(C)C)[C@H]2O)[C@](C)(O)C[C@@H](C)C(=NOCOC)[C@H](C)[C@@H](O)[C@]1(C)O [Example 33] ; its MIC = 0.1

###

Measured MIC values are reported for all entries that follow.
System: Staphylococcus aureus 1061
Give just the numeric value; µg/mL need not be written.

- MOLECULE: "CC[C@H]1OC(=O)[C@H](C)[C@@H](O[C@H]2C[C@@](C)(OC)[C@@H](O)[C@H](C)O2)[C@H](C)[C@@H](O[C@@H]2O[C@H](C)C[C@H](N(C)C)[C@H]2O)[C@](C)(O)C[C@@H](C)C(=NOCOCCCl)[C@H](C)[C@@H](O)[C@]1(C)O [Example 21]"
  VALUE_UNIT: "µg/mL"
  QUANTITATIVE_RESULT: 0.2

Considering CCSCCON=C1[C@H](C)C[C@@](C)(O)[C@H](O[C@@H]2O[C@H](C)C[C@H](N(C)C)[C@H]2O)[C@@H](C)[C@H](O[C@H]2C[C@@](C)(OC)[C@@H](O)[C@H](C)O2)[C@@H](C)C(=O)O[C@H](CC)[C@@](C)(O)[C@H](O)[C@H]1C [Example 13] , its MIC with Staphylococcus aureus 1061 was recorded as 0.4

###

System: Streptococcus pyogenes A 561
Assay: serial dilution liquid medium MIC, Streptococcus pyogenes A 561
Format: cell-based
Conditions: A561, 24 hours at 37° C., read-out: minimum inhibiting concentration (MIC)
ENDPOINT: MIC

- TEST_SMILES: "CC[C@H]1OC(=O)[C@H](C)[C@@H](O[C@H]2C[C@@](C)(OC)[C@@H](O)[C@H](C)O2)[C@H](C)[C@@H](O[C@@H]2O[C@H](C)C[C@H](N(C)C)[C@H]2O)[C@](C)(O)C[C@@H](C)C(=NOCC(=O)C(C)(C)C)[C@H](C)[C@@H](O)[C@]1(C)O"
  MEASURED_TARGET: "Streptococcus pyogenes A 561"
  ENDPOINT: "MIC"
  RESULT: "0.1 µg/mL"
- TEST_SMILES: "CC[C@H]1OC(=O)[C@H](C)[C@@H](O[C@H]2C[C@@](C)(OC)[C@@H](O)[C@H](C)O2)[C@H](C)[C@@H](O[C@@H]2O[C@H](C)C[C@H](N(C)C)[C@H]2O)[C@](C)(O)C[C@@H](C)C(=NOCOCCOC)[C@H](C)[C@@H](O)[C@]1(C)O"
  MEASURED_TARGET: "Streptococcus pyogenes A 561"
  ENDPOINT: "MIC"
  RESULT: "0.05 µg/mL"
- TEST_SMILES: "CC[C@H]1OC(=O)[C@H](C)[C@@H](O[C@H]2C[C@@](C)(OC)[C@@H](O)[C@H](C)O2)[C@H](C)[C@@H](O[C@@H]2O[C@H](C)C[C@H](N(C)C)[C@H]2O)[C@](C)(O)C[C@@H](C)C(=NOCOC)[C@H](C)[C@@H](O)[C@]1(C)O"
  MEASURED_TARGET: "Streptococcus pyogenes A 561"
  ENDPOINT: "MIC"
  RESULT: "0.02 µg/mL"

# compound CC[C@H]1OC(=O)[C@H](C)[C@@H](O[C@H]2C[C@@](C)(OC)[C@@H](O)[C@H](C)O2)[C@H](C)[C@@H](O[C@@H]2O[C@H](C)C[C@H](N(C)C)[C@H]2O)[C@](C)(O)C[C@@H](C)C(=NOCOCCN(C)C)[C@H](C)[C@@H](O)[C@]1(C)O ; its MIC = ≤ 0.01 µg/mL

###

Tested on: Staphylococcus aureus UC 1128
Assay: serial dilution liquid medium MIC, Staphylococcus aureus UC 1128 pen-resistant
Type: cell-based
Settings: UC1128; Staphylococcus aureus UC 1128 pen-resistant; 24 hours at 37° C.; read-out: minimum inhibiting concentration (MIC)
ENDPOINT: MIC (µg/mL)
Give just the numeric value; µg/mL need not be written.

Below are worked cases with known answers.
- TEST_SMILES: "CC[C@H]1OC(=O)[C@H](C)[C@@H](O[C@H]2C[C@@](C)(OC)[C@@H](O)[C@H](C)O2)[C@H](C)[C@@H](O[C@@H]2O[C@H](C)C[C@H](N(C)C)[C@H]2O)[C@](C)(O)C[C@@H](C)C(=NOCCN2CCCCC2)[C@H](C)[C@@H](O)[C@]1(C)O"
  MIC [µg/mL]: 0.6
- TEST_SMILES: "CC[C@H]1OC(=O)[C@H](C)[C@@H](O[C@H]2C[C@@](C)(OC)[C@@H](O)[C@H](C)O2)[C@H](C)[C@@H](O[C@@H]2O[C@H](C)C[C@H](N(C)C)[C@H]2O)[C@](C)(O)C[C@@H](C)C(=NOCOCCN(C)C)[C@H](C)[C@@H](O)[C@]1(C)O"
  MIC [µg/mL]: 0.6
- TEST_SMILES: "CC[C@H]1OC(=O)[C@H](C)[C@@H](O[C@H]2C[C@@](C)(OC)[C@@H](O)[C@H](C)O2)[C@H](C)[C@@H](O[C@@H]2O[C@H](C)C[C@H](N(C)C)[C@H]2O)[C@](C)(O)C[C@@H](C)C(=NOCOCCOC)[C@H](C)[C@@H](O)[C@]1(C)O"
  MIC [µg/mL]: 2

Proceed to the following item.
# molecule CC[C@H]1OC(=O)[C@H](C)[C@@H](O[C@H]2C[C@@](C)(OC)[C@@H](O)[C@H](C)O2)[C@H](C)[C@@H](O[C@@H]2O[C@H](C)C[C@H](N(C)C)[C@H]2O)[C@](C)(O)C[C@@H](C)C(=NOCOCCN)[C@H](C)[C@@H](O)[C@]1(C)O ; its MIC = 0.4
